Data provenance: the Deep4Chem optical property database

Test: solvent given as SMILES
Conditions: in C1CCOC1

>  <compound>
CCN(CC)c1ccc(-c2nc3c4ccccc4n(C)c3nc2-c2ccc([B-](F)(c3c(C)cc(C)cc3C)c3c(C)cc(C)cc3C)cc2)cc1

>  <measurementUnit>
nm

>  <emission maximum>
508.44

$$$$
>  <compound>
CCCCCCCCCn1c(-c2cc(-c3nc4ccccc4n3CCCCCCCCC)cc(-c3nc4ccccc4n3CCCCCCCCC)c2)nc2ccccc21

>  <measurementUnit>
nm

>  <emission maximum>
361.1

$$$$
>  <compound>
CCN1c2ccc(/C=N/Nc3ccccn3)cc2Sc2cc(-c3ccc(OC)cc3)ccc21

>  <measurementUnit>
nm

>  <emission maximum>
491

$$$$
>  <compound>
c1cc2ccc1-c1ccc(cc1)-c1ccc([se]1)-c1ccc(cc1)-c1ccc(cc1)-c1ccc([se]1)-c1ccc(cc1)-c1ccc(cc1)-c1ccc([se]1)-c1ccc(cc1)-c1ccc(cc1)-c1ccc-2[se]1

>  <measurementUnit>
nm

>  <emission maximum>
492

$$$$
>  <compound>
Cc1cc(C)c(B(c2ccc(N3c4ccccc4Oc4ccccc43)cc2)c2c(C)cc(C)cc2C)c(C)c1

>  <measurementUnit>
nm

>  <emission maximum>
602.56

$$$$
>  <compound>
O=S(=O)(c1cccc(-n2c3ccccc3c3ccccc32)c1)c1cccc(-n2c3ccccc3c3ccccc32)c1

>  <measurementUnit>
nm

>  <emission maximum>
426

$$$$
>  <compound>
C1=C2c3cc4ccccc4cc3C3=[N+]2[B-]2(Oc4ccccc43)Oc3ccccc3-c3c4cc5ccccc5cc4c1n32 (configuration not stated)

>  <measurementUnit>
nm

>  <emission maximum>
832

$$$$
>  <compound>
CCOC(=O)/C(C#N)=C\c1ccc2c(c1)c1ccccc1n2-c1ccc(C)cc1

>  <measurementUnit>
nm

>  <emission maximum>
461

$$$$
>  <compound>
CCCCC(CC)Cn1c2cc(C#N)ccc2c2cc(-c3ccc(N(c4ccccc4)c4ccccc4)cc3)c(C#N)cc21 (configuration not stated)

>  <measurementUnit>
nm

>  <emission maximum>
507

$$$$
>  <compound>
Cc1cccc(Nc2ccccc2C(=O)O)c1C

>  <measurementUnit>
nm

>  <emission maximum>
438

$$$$
>  <compound>
CC(=O)c1ccc(-c2cnc3nn4ccccc4c3c2)cc1

>  <measurementUnit>
nm

>  <emission maximum>
420

$$$$
>  <compound>
CC(C)(C)c1ccc2c(c1)c1cc(C(C)(C)C)ccc1n2-c1ccc(-n2c3ccc(C(C)(C)C)cc3c3cc(C(C)(C)C)ccc32)c(C(=O)c2ccncc2)c1

>  <measurementUnit>
nm

>  <emission maximum>
519.49

$$$$
>  <compound>
CCCCCCCCCCCCCCCCOc1cc(C#Cc2ccc3ccccc3c2)c(OCCCCCCCCCCCCCCCC)cc1C#Cc1ccc(C=C(C#N)C#N)cc1

>  <measurementUnit>
nm

>  <emission maximum>
602

$$$$
>  <compound>
COc1cccc2cc(-c3ccc([N+](=O)[O-])cc3)c(=O)oc12

>  <measurementUnit>
nm

>  <emission maximum>
373

$$$$
>  <compound>
COC(=O)c1ccc(C#Cc2ccc(N(C)C)cc2)cc1

>  <measurementUnit>
nm

>  <emission maximum>
482

$$$$
>  <compound>
CCCCCCCCn1cc(-n2c(-c3cc(-c4nc5ccc(C)cc5n4-c4cn(CCCCCCCC)nn4)cc(-c4nc5ccc(C)cc5n4-c4cn(CCCCCCCC)nn4)c3)nc3ccc(C)cc32)nn1

>  <measurementUnit>
nm

>  <emission maximum>
382.5

$$$$
>  <compound>
N#Cc1ccc(-c2ccc(C3=CCCCC3)s2)s1

>  <measurementUnit>
nm

>  <emission maximum>
441

$$$$
>  <compound>
CCN1\C(=C/C=C/C=C/C2=[N+](CC)c3ccc4ccccc4c3C2(C)C)C(C)(C)c2c1ccc1ccccc21

>  <measurementUnit>
nm

>  <emission maximum>
707

$$$$
>  <compound>
O=c1[nH]c2ccccc2[nH]1

>  <measurementUnit>
nm

>  <emission maximum>
315

$$$$
>  <compound>
COc1cc2c(cc1-c1ccc(C#N)cc1)Cc1c3c(c4c(c1-2)-c1cc(OC)c(-c2ccc(C#N)cc2)cc1C4)C(=O)N(CCC(C)C)C3=O

>  <measurementUnit>
nm

>  <emission maximum>
460

$$$$
>  <compound>
Brc1ccc(-c2nc(-c3ccc(C#Cc4ccc(-n5c6ccccc6c6ccccc65)cc4)cc3)nc(-c3ccc(C#Cc4ccc(-n5c6ccccc6c6ccccc65)cc4)cc3)n2)cc1

>  <measurementUnit>
nm

>  <emission maximum>
465

$$$$
>  <compound>
c1ccc2c(c1)Cc1c-2sc2c1Cc1ccccc1-2

>  <measurementUnit>
nm

>  <emission maximum>
385

$$$$
